Recorded measurements of ELISA signal, one per entry
# TARGET UNDER TEST: T1, Recombinant Human DLL4 (delta-like protein 4) (human, UniProt Q9NR61 27-524)
# T1 construct: Bought recombinant human DLL4 (R&D Systems Cat#1506-D4/CF); also called rHuman DLL4; Delta-like 4
# EXPERIMENTAL PROTOCOL: ELISA, DLL4 coated on plate, Fab at 0 nM (no-Fab background, second 0 row)
Lab note: jot down the number only; don't add units.

The recorded ELISA signal for Fab VH1-46_IGHD6-6*01_IGHJ1*01 S102A/S103P/S104F/H111F & L6_IGKJ1*01 S31H (Fab, V domains shown, Tested as a Fab; also called APFF & S31H) VH: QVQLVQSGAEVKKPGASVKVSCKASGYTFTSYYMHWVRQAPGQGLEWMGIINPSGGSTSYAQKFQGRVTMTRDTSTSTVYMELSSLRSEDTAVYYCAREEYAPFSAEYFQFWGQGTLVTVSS VL: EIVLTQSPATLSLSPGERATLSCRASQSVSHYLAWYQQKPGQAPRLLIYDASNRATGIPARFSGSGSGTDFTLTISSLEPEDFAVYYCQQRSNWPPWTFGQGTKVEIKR is 0

Entry Fab VH1-46_IGHD6-6*01_IGHJ1*01 S102A/S103P/S104F/H111F & L6_IGKJ1*01 S28N (Fab, V domains shown, Tested as a Fab; also called APFF & S28N) VH: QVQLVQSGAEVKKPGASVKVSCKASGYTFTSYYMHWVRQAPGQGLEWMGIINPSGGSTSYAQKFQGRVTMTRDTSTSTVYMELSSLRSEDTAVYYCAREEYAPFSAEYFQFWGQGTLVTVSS VL: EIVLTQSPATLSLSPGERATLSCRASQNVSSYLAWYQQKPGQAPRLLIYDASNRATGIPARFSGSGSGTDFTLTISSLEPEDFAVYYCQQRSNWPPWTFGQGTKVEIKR — recorded ELISA signal = 0

In plain terms, Fab VH1-46_IGHD6-6*01_IGHJ1*01 S102A/S103P/S104F/H111F & L6_IGKJ1*01 S30D (Fab, V domains shown, Tested as a Fab; also called APFF & S30D) VH: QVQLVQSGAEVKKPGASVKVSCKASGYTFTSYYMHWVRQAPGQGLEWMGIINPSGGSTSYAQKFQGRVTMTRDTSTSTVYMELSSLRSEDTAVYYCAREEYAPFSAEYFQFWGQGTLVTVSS VL: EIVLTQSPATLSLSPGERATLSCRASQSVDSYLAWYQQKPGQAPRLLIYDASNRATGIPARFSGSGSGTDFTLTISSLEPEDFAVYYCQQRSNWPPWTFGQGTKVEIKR has a documented ELISA signal of 0.01
